This listing pairs compounds with measured pIC50.
# Test system: MDA-231-LNA cells
# assayOverview: 2D cellular proliferation assay
# Assay type: cell-based
# assayConditions: 72 h, 3 days incubation, resazurin
Remember the convention: pIC50 equals -log10 of concentration in molar.

[[record]]
compound = "NC(=O)Cc1ccccc1CCc1nc(Nc2ccc(C3CCNCC3)cc2OC(F)(F)F)ncc1C(F)(F)F [Compound 10]"
testresult = 5.77


Exercise: Using the record for CN1CCC(c2ccc(Nc3ncc(C(F)(F)F)c(CCc4ccccc4CC(N)=O)n3)c(OC(F)(F)F)c2)CC1 [Compound 11] , report its pIC50.
Key: 5.59

Exercise: Need pIC50 of CCN1CCC(c2ccc(Nc3ncc(C(F)(F)F)c(CCc4cccc(C(N)=O)c4)n3)c(OC)c2)CC1 [Compound 7] , thanks.
Key: 5.31

Exercise: # query: pIC50 of entry CCc1cc(C2CCNCC2)ccc1Nc1ncc(C(F)(F)F)c(CCc2ccccc2CC(N)=O)n1 [Compound 8]
Key: 5.61

Where do these numbers come from? They come from patent US9120761B2.
